assay-system: Ba/F3 (EML4-ALK/L1196M) (Homo sapiens, UniProt Q9UM73, L1196M, cells depend on it)
Construct: Q9HC35 (Echinoderm microtubule-associated protein-like 4)
Sequence (Q9UM73 whole entry L1196M): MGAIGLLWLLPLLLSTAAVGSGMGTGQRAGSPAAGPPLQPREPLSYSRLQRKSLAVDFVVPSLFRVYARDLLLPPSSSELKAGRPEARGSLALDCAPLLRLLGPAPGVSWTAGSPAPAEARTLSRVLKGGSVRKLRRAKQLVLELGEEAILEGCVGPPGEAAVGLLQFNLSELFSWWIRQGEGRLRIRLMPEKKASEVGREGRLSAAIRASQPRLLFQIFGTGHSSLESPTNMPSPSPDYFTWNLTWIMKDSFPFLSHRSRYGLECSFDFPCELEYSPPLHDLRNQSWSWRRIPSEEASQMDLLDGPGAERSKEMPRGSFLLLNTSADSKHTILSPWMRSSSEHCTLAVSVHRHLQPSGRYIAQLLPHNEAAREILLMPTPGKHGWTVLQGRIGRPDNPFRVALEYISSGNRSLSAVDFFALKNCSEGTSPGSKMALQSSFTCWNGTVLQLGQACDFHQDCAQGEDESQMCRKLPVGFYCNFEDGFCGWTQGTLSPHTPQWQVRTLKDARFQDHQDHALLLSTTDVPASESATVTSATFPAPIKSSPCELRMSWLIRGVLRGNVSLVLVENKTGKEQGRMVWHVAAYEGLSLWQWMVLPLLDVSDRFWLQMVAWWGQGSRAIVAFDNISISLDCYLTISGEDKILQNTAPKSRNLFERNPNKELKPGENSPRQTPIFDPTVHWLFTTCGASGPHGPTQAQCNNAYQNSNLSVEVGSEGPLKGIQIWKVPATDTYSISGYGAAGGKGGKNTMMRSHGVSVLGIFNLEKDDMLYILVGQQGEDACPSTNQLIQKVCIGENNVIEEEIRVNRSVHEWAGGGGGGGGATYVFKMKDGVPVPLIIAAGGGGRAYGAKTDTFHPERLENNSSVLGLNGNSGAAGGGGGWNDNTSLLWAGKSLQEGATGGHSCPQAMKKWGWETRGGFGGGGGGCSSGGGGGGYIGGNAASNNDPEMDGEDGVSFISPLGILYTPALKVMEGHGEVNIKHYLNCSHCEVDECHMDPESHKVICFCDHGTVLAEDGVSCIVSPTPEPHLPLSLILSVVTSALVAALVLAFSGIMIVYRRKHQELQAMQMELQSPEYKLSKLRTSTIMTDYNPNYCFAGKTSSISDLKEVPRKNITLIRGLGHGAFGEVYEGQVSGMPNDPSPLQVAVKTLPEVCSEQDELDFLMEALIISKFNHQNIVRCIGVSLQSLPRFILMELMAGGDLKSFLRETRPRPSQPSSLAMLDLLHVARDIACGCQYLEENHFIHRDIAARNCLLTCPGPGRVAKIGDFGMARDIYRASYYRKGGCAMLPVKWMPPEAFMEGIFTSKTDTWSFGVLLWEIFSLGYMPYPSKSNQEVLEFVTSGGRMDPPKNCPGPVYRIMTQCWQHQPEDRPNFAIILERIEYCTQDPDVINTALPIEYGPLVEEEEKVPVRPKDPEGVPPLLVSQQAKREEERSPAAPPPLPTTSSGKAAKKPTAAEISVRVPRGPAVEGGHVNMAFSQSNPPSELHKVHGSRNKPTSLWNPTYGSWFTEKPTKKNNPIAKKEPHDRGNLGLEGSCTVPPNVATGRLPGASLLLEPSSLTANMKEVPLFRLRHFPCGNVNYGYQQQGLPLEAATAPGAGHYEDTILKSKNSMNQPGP
procedure-details: Growth inhibition IC50 in Ba/F3 cells expressing EML4-ALK L1196M
Type: cell-based
recorded-metric: log10 GI50 (log10 of the value in nM)
Values below are the log10 of the recorded GI50, with nM as the unit.

# annotated cases, reported log10 GI50 shown
[
  {
    "compound": "COc1cc(N2CCC(NC(=O)CCCCCCCCCC(=O)N[C@H](C(=O)N3C[C@H](O)C[C@H]3C(=O)NCc3ccc(-c4scnc4C)cc3)C(C)(C)C)CC2)ccc1Nc1ncc(Cl)c(Nc2ccccc2P(C)(C)=O)n1",
    "log10 GI50": 2.23
  },
  {
    "compound": "COc1cc(N2CCC(N3CCN(C(=O)CCCCCCNc4cccc5c4C(=O)N(C4CCC(=O)NC4=O)C5=O)CC3)CC2)ccc1Nc1ncc(Cl)c(Nc2ccccc2P(C)(C)=O)n1 (stereo not drawn)",
    "log10 GI50": 1.88
  },
  {
    "compound": "COc1cc(N2CCC(N3CCN(C(=O)CNc4cccc5c4C(=O)N(C4CCC(=O)NC4=O)C5=O)CC3)CC2)ccc1Nc1ncc(Cl)c(Nc2ccccc2P(C)(C)=O)n1 (stereo not drawn)",
    "log10 GI50": 1.76
  }
]

// fetch log10 GI50 given entry COc1cc(N2CCC(NC(=O)CCCNc3cccc4c3C(=O)N(C3CCC(=O)NC3=O)C4=O)CC2)ccc1Nc1ncc(Cl)c(Nc2ccccc2P(C)(C)=O)n1 (stereo not drawn)
2.16

// fetch log10 GI50 given entry COc1cc(N2CCC(N3CCN(C)CC3)CC2)ccc1Nc1ncc(Cl)c(Nc2ccccc2P(C)(C)=O)n1 [Brigatinib, reference compound]
1.56

// fetch log10 GI50 given entry COc1cc(N2CCC(N3CCN(C(=O)CCOCCOCCNc4cccc5c4C(=O)N(C4CCC(=O)NC4=O)C5=O)CC3)CC2)ccc1Nc1ncc(Cl)c(Nc2ccccc2P(C)(C)=O)n1 (stereo not drawn)
2.58
